Test system: OVCAR-4 ovarian
method description: NCI tumour cell line growth inhibition, 48 h
attribute measured: TGI (µM)
Kindly answer with a numeric value in µM, unit omitted.

Given the compound `Brc1ccc2c(c1)[C@H]1CCc3c([nH]c4ccccc34)[C@H]1N2` , what is its reported TGI?
26.3

What value of TGI has been recorded for this entry: `NC(=O)NC1=NCCC(=O)N1CCc1c[nH]c2ccccc12`
52.9

Given the entry `NS(=O)(=O)OC[C@H]1O[C@@H](n2cnc3c(N[C@H]4CCc5ccccc54)ncnc32)[C@H](O)[C@@H]1O` , report its measured TGI.
0.626

// lookup TGI for `Oc1ccc(Br)cc1CN1CCN(Cc2ccc(Cl)cc2)CC1`
86.3

###

Tested on: U251 CNS
method description: NCI tumour cell line growth inhibition, 48 h
So I've got a bunch of compounds here, and I need their TGI values.
Response body: numeric value in µM, unit text excluded.

What does the data say about its TGI? Entry: `O=C(/C=C/c1ccccc1O)CC(=O)/C=C/c1ccccc1O`
13

Look at this compound and give its reported TGI. `CSc1nc(NC2CC2)c2c(n1)Sc1nc3ccccc3n1N=C2`
61.8

Name the reported TGI value associated with the compound CC1CN=C(c2ccc3c(c2)Cc2cc(C4=NCC(C)N4)ccc2-3)N1 (configuration not stated)
46.7

I am curious: what TGI value has been reported for CCCCOP(=O)(OCCCC)C(NS(=O)(=O)c1ccccc1)(C(=O)OCC)C(F)(F)F (configuration not stated) ?
65

Item under review: COc1cc2c3c(c1OC)C1(C=CC(=O)C=C1)CC3N(C(=O)OC(C)(C)C(Cl)(Cl)Cl)CC2 (configuration not stated) . Reported TGI?
22.4

For the compound `COc1cc(CNc2nc3cc(C(F)(F)F)ccc3nc2C(=O)O)cc(OC)c1OC` , what TGI is on record?
31.2

Recorded TGI of COC1=CC(=O)c2c(O)c3c(c(O)c2C1=O)CC(C)(O)OC3 (configuration not stated) , please.
10.5

###

Tested on: MCF7 breast
method description: NCI tumour cell line growth inhibition, 48 h; in the data active means GI50 below about 0.43 µM; inactive means the rest
Thanks in advance; please answer with one of these: YES = active, NO = inactive

What was the test verdict on `COC(=O)c1ccc2c(c1)CCN2C(=O)c1cc2c(cc1Br)OCO2` ?
NO

Dear colleague, could you share the recorded outcome for `COc1ccc(OC)c(-c2cc(-c3ccc(Cl)cc3)nn2-c2ccc(S(N)(=O)=O)cc2)c1` when you have a moment?
NO

Just curious, what result did Nc1nc(Cl)cc2c1ncn2C1OC(CO)C(O)C1O (stereo not given) get here?
NO

Would you mind telling me which call this test gave COc1cc(C2CC(c3ccc(C)cc3)=NN2C(C)=O)ccc1Oc1ccnc2cc(Cl)ccc12 (stereo not given) ?
NO

Dear colleague, could you share the recorded outcome for O=C(NCCc1ccccc1)C(c1csc2ccccc12)N(C(=O)CCl)c1ccc(-c2cnco2)cc1 (stereo not given) when you have a moment?
NO

Status in this test for COC(=O)C1=C(O)C(C(=O)OC)[C@@]2(O)[C@@H](C(=O)OC)C(c3ccccc3C(F)(F)F)C[C@@H]1[C@@H]2C(=O)OC (stereo not given in full) ?
NO

Short answer needed: outcome of this test for `COC(=O)c1ccc2c(c1)[n+](=O)c(C(C)=O)c(C(F)(F)F)n2[O-]` ?
NO

Which result was noted for this molecule in the test: `C=CC[n+]1c(/C=C2\Sc3ccccc3N2C)sc(-c2ccccc2)c1-c1ccccc1`
YES

Outcome logged for N#CC1=C(N)Oc2c(sc3c(F)cccc23)C1c1ccc(Cl)cc1 (stereo not given) in this assay:
NO

Write down the call the test reported for this molecule. Item: `O=C(/C=C/c1ccco1)c1ccc(Nc2ccnc3cc(Cl)ccc23)cc1`
NO

###

Can you tell me TGI for the items I'm about to list?
Tested on: SK-MEL-28 melanoma
method description: NCI tumour cell line growth inhibition, 48 h
Where a SMILES comes first, the peptide text is derived from it. The star is where a group is joined. Boc = CC(C)(C)OC(=O)*; OBn = c1ccc(CO*)cc1; Bn = c1ccc(C*)cc1

Quick check: TGI of `O=c1[nH]nc(Nc2ccccc2)c2nnn(Cc3ccccc3)c12` ?
> 100 µM

Requested read-out: TGI. Entry: CCOC(=O)C(NC(=O)Nc1ccccc1)(Nc1cccc(Cl)c1)C(F)(F)F (stereo not drawn)
> 100 µM

Could you share which TGI value was measured for CC12CCC3=C(CSC4=C3CSc3ccccc34)C1=CCCC2=O (stereo not drawn) ?
> 100 µM

Bench note: what TGI did `C=C1CN(C(=O)c2cc3cc(OC)c(OC)c(OC)c3[nH]2)c2cc([N+](=O)[O-])ccc21` show?
> 100 µM

Query: TGI; subject: COc1ccc2c(c1)C(CCN)C(=O)N2 (stereo not drawn)
> 100 µM

For the compound shown here, `COc1ccc(NC(=O)c2cc(NC(=O)/C=C/c3ccccc3)c(OC)c(OC)c2)cc1` , give the reported TGI.
> 100 µM

Any idea what TGI was measured for `Nc1c(Cl)ncnc1NCC1(CO)CCC1` ?
> 100 µM

GET /values?readout=TGI&item= `COc1ccc(/C=N\N2C(=O)Cc3ccccc32)cc1`
> 100 µM

What measured TGI goes with `COc1ccc2c(c1)Cc1cc(N=[N+]([O-])c3ccc4c(c3)Cc3cc(OC)ccc3-4)ccc1-2` ?
> 100 µM

For `COc1cc(Oc2cnc3cc(N)cc(N)c3n2)cc(OC)c1OC` , what is its reported TGI?
> 100 µM

Can you share its TGI? I mean this compound: COC(=O)CC[C@@H](NC(=O)C(C)NC(=O)COC1C(O)C(COC(=O)CCCCCCCCCCNC(=O)c2ccc([N+](=O)[O-])c3[nH]c4cc(Br)ccc4c(=O)c23)OC(OCc2ccccc2)C1NC(C)=O)C(N)=O (stereo partly drawn)
> 100 µM

What does the record list as TGI for `O=C(CSCC(=O)N/N=C/c1ccc(F)cc1)N/N=C/c1ccc(F)cc1` ?
> 100 µM

# get_value(readout='TGI', item= `COc1ccc(-c2ccc(/C=N/n3cnn(CN4CCN(C)CC4)c3=S)o2)c([N+](=O)[O-])c1` )
> 100 µM

Can you share its TGI? I mean this compound: COC(=O)c1ccc2c(c1)CC1(C2)Cc2ccc3c(c2C1)CCC3 (stereo not drawn)
> 100 µM

Which TGI is reported for this compound? COC1=CC(=O)c2c(O)c3c(c(O)c2C1=O)CC(C)(O)OC3 (stereo not drawn)
31.5 µM

// lookup TGI for `Cc1cc(S(=O)(=O)Nc2nc(N)n(-c3ccccc3)n2)c(S)cc1Cl`
> 100 µM

Could you tell me which TGI is on file for `O=C(/C=C/c1ccccc1O)CC(=O)/C=C/c1ccccc1O` ?
> 31.6 µM

Entry `CCCCc1c2c(nc3c1CCc1cc(C=O)c(N)nc1-3)/C(=C/c1ccccc1)CCC2` has what TGI?
> 100 µM

Item under review: `O=C(O)c1cc(/C=C/c2ccc(O)c(O)c2)ccc1O` . Reported TGI?
> 100 µM

Look up TGI: NNC(=S)N/N=C(\c1nc2ccc(Cl)cc2[nH]c1=O)C(O)c1ccc(Cl)cc1Cl (stereo not drawn)
> 100 µM

Quick one: TGI for `O=C1C=Cc2cc3ccccc3c3cccc1c23` ?
> 100 µM

So what does the record say about TGI for COc1ccc(C2CC(c3cccc(Nc4ccnc5cc(Cl)ccc45)c3)=NN2c2ccccc2)cc1 (stereo not drawn) ?
32.5 µM

Can you look up the measured TGI of C/C(=C/CC[C@](C)(OC1OC(CO)C(O)C(O)C1OC1OC(C)C(O)C(O)C1O)[C@H]1CC[C@]2(C)[C@@H]1CC[C@@H]1[C@@]3(C)CC[C@H](O)C(C)(C)[C@@H]3C[C@H](O)[C@]12C)CO (stereo partly drawn) for me?
> 100 µM

Query (compound): CC(=O)OCC1OC(n2c(-c3ccc(N)cc3)cc(-c3ccco3)c(C#N)c2=O)C(OC(C)=O)C(OC(C)=O)C1OC(C)=O (stereo not drawn) ; field requested: TGI
> 50 µM

Please report the recorded TGI for `COc1ccc(/C(C#N)=C/c2nc3c(N4CCOCC4)nc(Cl)nc3n2C)cc1OC` .
2.43 µM

Returns the measured TGI for the input compound. Input: CCCCC#Cc1c(I)n(C2OC(CO[Si](C)(C)C(C)(C)C)C3OC(C)(C)OC32)c(=O)[nH]c1=O (stereo not drawn)
4.3 µM

Fill blank: measured TGI of the compound CC(C)CC(NC(=O)C(CCC(=O)OCc1ccccc1)NC(=O)OC(C)(C)C)C(=O)NC(COCc1ccccc1)C(=O)NC(Cc1ccccc1)C(=O)O (stereo not drawn) (Boc-E(OBn)LS(Bn)F-OH; configuration not given here) is ____.
> 100 µM

Find the recorded TGI belonging to COC12OC3(C4OC41)C(C(=O)O[C@H]3CO[Si](C)(C)C(C)(C)C)C2S(=O)(=O)c1ccccc1 (stereo partly drawn) and report it.
> 5.53 µM

Which TGI value is on record for `O=C1CCCc2ccc3c(c21)CC1(Cc2cc4c(cc2C1)CCCC4)C3` ?
63.7 µM

Please look up its TGI: `COC(=O)[C@@]12CC3CN(Cc4c1[nH]c1ccccc41)C2CC3=O`
> 100 µM

Sample N#CC1(Cc2ccccc2Cl)c2ccccc2C=CN1C(=O)c1ccccc1 (stereo not drawn) — what was its TGI?
> 100 µM

// returns reported TGI for input `COc1cc2[nH]c(=O)[nH]c2c2c(C)c[nH]c12`
> 100 µM

Fill blank: measured TGI of the compound `CCOC(=O)n1c2ccccc2c2c(O)c(OC)c3c(c21)C(=O)NC3=O` is ____.
> 100 µM

# TGI lookup, item `COc1ccc(-n2cc(-c3ccc(Cl)cc3)[nH]c2=S)cc1Cl`
> 100 µM

// query TGI value for entry `COc1ccccc1NC(=O)CC(=O)NNCC(=O)Nc1nc(-c2ccccc2)cs1`
> 100 µM

Which measured TGI value corresponds to `Nc1c2c(nc3ccccc13)-c1ccccc1CCC2` ?
27.3 µM

Entry `CCOC(=O)Cn1c(=O)c2cc(C)cc3c(Cl)nc4c(OC)c(OC)cc1c4c32` : reported TGI = ?
> 100 µM

I would be grateful if you could share the reported TGI for CC1(C)OC2C(CO)OC(/N=C(\NC#N)Oc3ccccc3)C2O1 (stereo not drawn) .
> 100 µM
